# PROTOCOL_TEXT: Solubility of pesticide samples in solvents (equilibration, 25 C, HPLC analysis)
# Type: physicochemical

MOLECULE: CCN(CC)C(=O)C(C)Oc1cccc2ccccc12 (centres unmarked) [Napropamide, napropamide]
UNIT_INFO: % w/w
Solubility in acetophenone: 27.6
//
MOLECULE: CCO/N=C(\CC)C1=C(O)CC(c2c(C)cc(C)cc2C)CC1=O (centres unmarked)
UNIT_INFO: % w/w
Solubility in acetophenone: 12.7

* * *

# PROTOCOL_TEXT: Solubility of pesticide samples in solvents (equilibration, 25 C, HPLC analysis)
# Type: physicochemical
Recorded Solubility in dimethyl lactamide, one value per entry.

COMPOUND: CCN(CC)C(=O)C(C)Oc1cccc2ccccc12 (centres unmarked) [Napropamide, napropamide]
UNIT_INFO: % w/w
Solubility in dimethyl lactamide: 19.2

COMPOUND: CCO/N=C(\CC)C1=C(O)CC(c2c(C)cc(C)cc2C)CC1=O (centres unmarked)
UNIT_INFO: % w/w
Solubility in dimethyl lactamide: 3.2

* * *

# PROTOCOL_TEXT: Solubility of pesticide samples in solvents (equilibration, 25 C, HPLC analysis)
# Format: physicochemical
READOUT_LABEL: Solubility in dimethyl lactamide compared with Solvesso 200ND or acetophenone

COMPOUND: CCO/N=C(\CC)C1=C(O)CC(c2c(C)cc(C)cc2C)CC1=O (stereo not shown) [Tralkoxydim, tralkoxydim]
VAL: lower
//
COMPOUND: CCCCC(O)(Cn1cncn1)c1ccc(Cl)cc1Cl (stereo not shown) [Hexaconazole, hexaconazole]
VAL: better
//
COMPOUND: CCN(CC)C(=O)C(C)Oc1cccc2ccccc12 (stereo not shown) [Napropamide, napropamide]
VAL: lower
//
COMPOUND: CSc1nc(NC(C)C)nc(NC(C)C)n1 [Prometryn, prometryn]
VAL: better

* * *

Recorded Solubility in Solvesso 200ND, one value per entry.
# PROTOCOL_TEXT: Solubility of pesticide samples in solvents (equilibration, 25 C, HPLC analysis)
# Assay type: physicochemical
# MEASUREMENT_SETUP: solvent Solvesso 200ND; 25 C; Table 1
# Procedure: The following general method is used to measure the solubility of pesticide samples in solvents. A 2 ml aliquot of solvent is added to a 5 ml volume glass vial. Pesticide is added such that half of the volume of the liquid is filled. The sample is shaken for one minute and left to stand for 24 hours. Samples which have dissolved are refilled with more of the pesticide, shaken and left for a further 24 hours. […]

COMPOUND: N#Cc1c[nH]cc1-c1cccc2c1OC(F)(F)O2
Solubility in Solvesso 200ND, % w/w: 0.3
//
COMPOUND: CN1COCN(Cc2cnc(Cl)s2)/C1=N\[N+](=O)[O-]
Solubility in Solvesso 200ND, % w/w: 0.2
//
COMPOUND: CNC(=O)c1cc(Cl)cc(C)c1NC(=O)c1cc(Br)nn1-c1ncccc1Cl
Solubility in Solvesso 200ND, % w/w: 0.06
//
COMPOUND: CC(C)C1C2CCC1c1c(NC(=O)c3cn(C)nc3C(F)F)cccc12 (centres unmarked)
Solubility in Solvesso 200ND, % w/w: 5.6

* * *

# PROTOCOL_TEXT: Solubility of pesticide samples in solvents (equilibration, 25 C, HPLC analysis)
# Assay type: physicochemical
# MEASUREMENT_SETUP: 1 week
Recorded Solubility in Solvesso 200ND, one value per entry.

MOLECULE: CCNc1nc(NC(C)C)nc(SC)n1
UNIT_INFO: % w/w
Solubility in Solvesso 200ND: 29.3

MOLECULE: CSc1nc(NC(C)C)nc(NC(C)C)n1
UNIT_INFO: % w/w
Solubility in Solvesso 200ND: 12

MOLECULE: Fc1ccc([C@]2(Cn3cncn3)O[C@H]2c2ccccc2Cl)cc1 (racemic)
UNIT_INFO: % w/w
Solubility in Solvesso 200ND: 2.5

MOLECULE: CCCCC(O)(Cn1cncn1)c1ccc(Cl)cc1Cl (stereo not shown)
UNIT_INFO: % w/w
Solubility in Solvesso 200ND: 4.4

* * *

# PROTOCOL_TEXT: Solubility of pesticide samples in solvents (equilibration, 25 C, HPLC analysis)
# Assay type: physicochemical
# MEASUREMENT_SETUP: 1 week
READOUT_LABEL: Solubility in dimethyl lactamide

MOLECULE: CSc1nc(NC(C)C)nc(NC(C)C)n1
READOUT_LABEL: Solubility in dimethyl lactamide
VAL: 43 % w/w

MOLECULE: CCCCC(O)(Cn1cncn1)c1ccc(Cl)cc1Cl (stereo not shown)
READOUT_LABEL: Solubility in dimethyl lactamide
VAL: 18 % w/w

MOLECULE: Fc1ccc([C@]2(Cn3cncn3)O[C@H]2c2ccccc2Cl)cc1 (racemic)
READOUT_LABEL: Solubility in dimethyl lactamide
VAL: 8.0 % w/w

MOLECULE: CCNc1nc(NC(C)C)nc(SC)n1
READOUT_LABEL: Solubility in dimethyl lactamide
VAL: 53.0 % w/w

* * *

# PROTOCOL_TEXT: Solubility of pesticide samples in solvents (equilibration, 25 C, HPLC analysis)
# Assay type: physicochemical
# MEASUREMENT_SETUP: solvent acetophenone; 25 C; Table 1
Recorded Solubility in acetophenone, one value per entry.

MOLECULE: CC(C)C1C2CCC1c1c(NC(=O)c3cn(C)nc3C(F)F)cccc12 (centres unmarked)
Solubility in acetophenone / % w/w: 14.1
//
MOLECULE: CN(C)C(=O)Nc1ccc(Cl)c(Cl)c1
Solubility in acetophenone / % w/w: 4.8
//
MOLECULE: CN1COCN(Cc2cnc(Cl)s2)/C1=N\[N+](=O)[O-]
Solubility in acetophenone / % w/w: 5.0
//
MOLECULE: N#Cc1c[nH]cc1-c1cccc2c1OC(F)(F)O2
Solubility in acetophenone / % w/w: 8.5
//
MOLECULE: CNC(=O)c1cc(Cl)cc(C)c1NC(=O)c1cc(Br)nn1-c1ncccc1Cl
Solubility in acetophenone / % w/w: 0.75

* * *

Recorded Solubility in dimethyl lactamide, one value per entry.
# PROTOCOL_TEXT: Solubility of pesticide samples in solvents (equilibration, 25 C, HPLC analysis)
# Type: physicochemical
# MEASUREMENT_SETUP: solvent dimethyl lactamide; 25 C; Table 1

COMPOUND: CNC(=O)c1cc(Cl)cc(C)c1NC(=O)c1cc(Br)nn1-c1ncccc1Cl [Rynaxypry]
Solubility in dimethyl lactamide (% w/w): 2.8
//
COMPOUND: CN1COCN(Cc2cnc(Cl)s2)/C1=N\[N+](=O)[O-] [Thiamethoxam, thiamethoxam]
Solubility in dimethyl lactamide (% w/w): 9.0
//
COMPOUND: N#Cc1c[nH]cc1-c1cccc2c1OC(F)(F)O2 [Fludioxynil]
Solubility in dimethyl lactamide (% w/w): 30.1
//
COMPOUND: CC(C)C1C2CCC1c1c(NC(=O)c3cn(C)nc3C(F)F)cccc12 (centres unmarked) [Compound of FIG. 2]
Solubility in dimethyl lactamide (% w/w): 32.1
//
COMPOUND: CN(C)C(=O)Nc1ccc(Cl)c(Cl)c1 [Diuron]
Solubility in dimethyl lactamide (% w/w): 11.0
